# system.name: recombinant human B1 receptors (Homo sapiens)
# Construct: host or cells: CHO (CHO-B1)
# Sequence (P46663 whole entry): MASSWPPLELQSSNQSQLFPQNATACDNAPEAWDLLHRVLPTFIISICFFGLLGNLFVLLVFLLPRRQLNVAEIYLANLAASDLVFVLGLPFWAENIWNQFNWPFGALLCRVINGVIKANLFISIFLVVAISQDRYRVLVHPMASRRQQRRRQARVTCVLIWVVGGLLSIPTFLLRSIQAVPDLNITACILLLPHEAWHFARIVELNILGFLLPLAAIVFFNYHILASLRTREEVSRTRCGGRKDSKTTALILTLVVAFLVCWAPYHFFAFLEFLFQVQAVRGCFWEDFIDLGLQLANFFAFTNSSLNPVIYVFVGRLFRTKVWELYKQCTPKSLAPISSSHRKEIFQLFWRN
# protocol.description: Antagonist potency by measurement of cytosolic calcium ion concentration in CHO-B1 cells (agonist LysDABK)
# Format: cell-based
# test.context: inhibition of LysDABK (EC80)-evoked [Ca2+]i elevation, fluo-4, read-out: B1 func.
pIC50: −log10 of the molar value. Structures can show the parent of a compound that is named as a salt.
property: pIC50

The observed pIC50 for O=C(CC1c2cc(F)ccc2-c2ccccc2N1S(=O)(=O)c1ccc(Cl)c(Cl)c1)NCCc1ccc(C2=NCCN2)cc1 (centres unmarked) [Example 1, hydrochloride] when tested with recombinant human B1 receptors (Homo sapiens) stands at > 7.00

The observed pIC50 for CC(=O)c1ccc2c(c1)C(CC(=O)NCCc1ccc(C3=NCCN3)cc1)N(S(=O)(=O)c1ccc(Cl)c(Cl)c1)c1ccccc1-2 (centres unmarked) [Example 19, hydrochloride] when tested with recombinant human B1 receptors (Homo sapiens) stands at 6.30 to 7.00

The observed pIC50 for O=C(CC1c2ccccc2-c2ccccc2N1S(=O)(=O)c1ccc(Cl)c(Cl)c1)NCCCN1CCN(c2ccncc2)CC1 (centres unmarked) when tested with recombinant human B1 receptors (Homo sapiens) stands at > 7.00

The observed pIC50 for N=C(N)c1ccc(CCNC(=O)CC2c3ccccc3-c3ccccc3N2S(=O)(=O)c2ccc(Cl)c(Cl)c2)cc1 (centres unmarked) when tested with recombinant human B1 receptors (Homo sapiens) stands at > 7.00

The observed pIC50 for NCc1ccc(CC(NC(=O)CC(NS(=O)(=O)c2ccc3ccccc3c2)c2ccccc2)C(=O)N2CCCC2)cc1 (racemic) [Example 70003770, reference compound] when tested with recombinant human B1 receptors (Homo sapiens) stands at < 6.30

The observed pIC50 for COc1ccc(S(=O)(=O)N2c3ccccc3-c3ccccc3C2CC(=O)NCCc2ccc(C3=NCCN3)cc2)cc1 (centres unmarked) [Example 16, hydrochloride] when tested with recombinant human B1 receptors (Homo sapiens) stands at > 7.00

The observed pIC50 for CCCN1C(=O)C(NC(=O)Nc2ccc(N3CCC(N4CCCCC4)CC3)cc2)N=C(c2ccc(C)cc2)c2ccccc21 (racemic) [Example 70004387, reference compound] when tested with recombinant human B1 receptors (Homo sapiens) stands at 6.30 to 7.00

The observed pIC50 for O=C(CC1c2ccccc2-c2ccccc2N1S(=O)(=O)c1ccc(Cl)c(Cl)c1)N1CCC(Cc2ccc(C3=NCCN3)cc2)CC1 (centres unmarked) when tested with recombinant human B1 receptors (Homo sapiens) stands at > 7.00
